- target system: peroxidase-anti-peroxidase (PAP) immune complexes (UniProt P00433)
- Sequence (P00433 31-338, one chain of several): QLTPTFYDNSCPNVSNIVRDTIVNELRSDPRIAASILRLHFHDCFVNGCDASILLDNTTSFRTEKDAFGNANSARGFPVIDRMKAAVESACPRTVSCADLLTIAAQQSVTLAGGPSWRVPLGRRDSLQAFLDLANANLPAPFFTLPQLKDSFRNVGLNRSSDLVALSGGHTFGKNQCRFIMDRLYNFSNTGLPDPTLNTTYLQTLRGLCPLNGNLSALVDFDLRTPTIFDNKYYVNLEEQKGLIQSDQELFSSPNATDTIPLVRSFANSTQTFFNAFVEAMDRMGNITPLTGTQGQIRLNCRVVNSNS
- measurement description: reverse ELISA: PAP pre-incubated with peptide, then on C1q-coated plate; competitor: immobilised C1q
Positions of bridges follow the written chain, without caps; N, C: chain ends. No end group written: not given here.
measured endpoint: OD 405 nm (OD)

Worked set:
[
  {
    "binder": "PCARHLGELVWCT (disulfide 2-12 (inferred)) [… (SEQ ID NO:41)]",
    "OD 405 nm / OD": 0.205
  },
  {
    "binder": "DCARHLGELVWCT (disulfide 2-12 (inferred)) [… (SEQ ID NO:4)]",
    "OD 405 nm / OD": 0.193
  }
]

A. RCARHLGELVWCT (disulfide 2-12 (inferred)) [… (SEQ ID NO:5)]
B. DCAAHLGELAACT (cyclized by a disulfide bond between the two cysteine residues) [… (SEQ ID NO:40)]
Q) // compare measured OD 405 nm between A and B ; output the lower one Pick one; state its label.
A) A
